Sourced from patent US20170224836A1

- TARGET: T1, human CDH6 on cells (human, UniProt P55285 54-790)
- T1 sequence: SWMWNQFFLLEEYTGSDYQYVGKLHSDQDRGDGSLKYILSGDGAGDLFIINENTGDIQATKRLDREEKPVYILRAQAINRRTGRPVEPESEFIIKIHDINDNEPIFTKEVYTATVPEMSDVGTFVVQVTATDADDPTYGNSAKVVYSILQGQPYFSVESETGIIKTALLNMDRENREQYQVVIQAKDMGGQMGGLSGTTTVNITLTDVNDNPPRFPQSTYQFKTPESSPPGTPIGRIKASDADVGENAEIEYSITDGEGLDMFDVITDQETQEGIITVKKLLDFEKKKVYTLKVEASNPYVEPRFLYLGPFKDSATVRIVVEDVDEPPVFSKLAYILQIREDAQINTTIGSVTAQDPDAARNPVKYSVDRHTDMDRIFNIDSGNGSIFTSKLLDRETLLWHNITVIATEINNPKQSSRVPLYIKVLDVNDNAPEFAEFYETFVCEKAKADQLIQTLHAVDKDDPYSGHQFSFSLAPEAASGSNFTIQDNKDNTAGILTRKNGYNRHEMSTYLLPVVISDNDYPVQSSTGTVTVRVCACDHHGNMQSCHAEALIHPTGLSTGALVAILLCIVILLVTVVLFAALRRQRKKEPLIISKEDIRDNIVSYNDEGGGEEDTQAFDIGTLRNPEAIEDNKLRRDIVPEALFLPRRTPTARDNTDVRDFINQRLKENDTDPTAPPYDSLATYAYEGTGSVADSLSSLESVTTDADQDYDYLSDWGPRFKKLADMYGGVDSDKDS
- MEASUREMENT NOTES: cell-based or functional assay
PROPERTY MEASURED: percent inhibition at 1.22 nM ADC, JHOS4 cells (%)
# output: bare number, implied unit %

Request: # lookup: percent inhibition at 1.22 nM ADC, JHOS4 cells of NOV0682-SMCC-DM1 (antibody, human IgG1, kappa, V domains shown, SMCC-DM1 on primary amines, sites not stated) VH: QVQLVESGGGLVKPGGSLRLSCAASGFTFSSYAISWVRQAPGKGLEWVGFIKSNADGYTTNYAAPVKGRFTISRDDSKNTLYLQMNSLKTEDTAVYYCARIRYFRNWDYWGQGTLVTVSS VL: DIQMTQSPSSLSASVGDRVTITCRASQTINSYLNWYQQKPGKAPKLLIYRASNLQSGVPSRFSGSGSGTDFTLTISSLQPEDFATYYCQQGDSSWTFGQGTKVEIKR
Response: 33.9
